- assay.explanation: Mouse PK (PO)
- experimental.conditions: in vivo, read-out: Mouse PK (PO) % F
readout.label: bioavailability (%)
# number only, unit % dropped from output

I am curious: what bioavailability value has been reported for O=C(CN1CCOCC1)Nc1cccc(-c2nc(-c3c[nH]c(C(=O)N4CCCC4)c3)cs2)c1 [7A] ? 88

----------
- assay.explanation: physchem
- experimental.conditions: pH 7.4, aqueous buffer, thermodynamic from solid, Solubility in PBS
readout.label: solubility at 1 h

I am curious: what solubility at 1 h value has been reported for CC(=O)N1CCN(c2ccc(OCC3COC(Cn4ccnc4)(c4ccc(Cl)cc4Cl)O3)cc2)CC1 (stereo not drawn) [Ketoconazole, reference compound] ? 15.9 µM

Lookup O=C(CN1CCOCC1)Nc1cccc(-c2nc(-c3c[nH]c(C(=O)N4CCCC4)c3)cs2)c1 [7A (sample 1)] < 10 µM

Lookup Cl.O=C(CN1CCOCC1)Nc1cccc(-c2nc(-c3c[nH]c(C(=O)N4CCCC4)c3)cs2)c1 [9X (sample 2)] 10 to 80 µM

----------
- measured.target: JAK3 (Homo sapiens, UniProt P52333)
- Construct: purchased Invitrogen, Madison, Wis
- Sequence (P52333 whole entry): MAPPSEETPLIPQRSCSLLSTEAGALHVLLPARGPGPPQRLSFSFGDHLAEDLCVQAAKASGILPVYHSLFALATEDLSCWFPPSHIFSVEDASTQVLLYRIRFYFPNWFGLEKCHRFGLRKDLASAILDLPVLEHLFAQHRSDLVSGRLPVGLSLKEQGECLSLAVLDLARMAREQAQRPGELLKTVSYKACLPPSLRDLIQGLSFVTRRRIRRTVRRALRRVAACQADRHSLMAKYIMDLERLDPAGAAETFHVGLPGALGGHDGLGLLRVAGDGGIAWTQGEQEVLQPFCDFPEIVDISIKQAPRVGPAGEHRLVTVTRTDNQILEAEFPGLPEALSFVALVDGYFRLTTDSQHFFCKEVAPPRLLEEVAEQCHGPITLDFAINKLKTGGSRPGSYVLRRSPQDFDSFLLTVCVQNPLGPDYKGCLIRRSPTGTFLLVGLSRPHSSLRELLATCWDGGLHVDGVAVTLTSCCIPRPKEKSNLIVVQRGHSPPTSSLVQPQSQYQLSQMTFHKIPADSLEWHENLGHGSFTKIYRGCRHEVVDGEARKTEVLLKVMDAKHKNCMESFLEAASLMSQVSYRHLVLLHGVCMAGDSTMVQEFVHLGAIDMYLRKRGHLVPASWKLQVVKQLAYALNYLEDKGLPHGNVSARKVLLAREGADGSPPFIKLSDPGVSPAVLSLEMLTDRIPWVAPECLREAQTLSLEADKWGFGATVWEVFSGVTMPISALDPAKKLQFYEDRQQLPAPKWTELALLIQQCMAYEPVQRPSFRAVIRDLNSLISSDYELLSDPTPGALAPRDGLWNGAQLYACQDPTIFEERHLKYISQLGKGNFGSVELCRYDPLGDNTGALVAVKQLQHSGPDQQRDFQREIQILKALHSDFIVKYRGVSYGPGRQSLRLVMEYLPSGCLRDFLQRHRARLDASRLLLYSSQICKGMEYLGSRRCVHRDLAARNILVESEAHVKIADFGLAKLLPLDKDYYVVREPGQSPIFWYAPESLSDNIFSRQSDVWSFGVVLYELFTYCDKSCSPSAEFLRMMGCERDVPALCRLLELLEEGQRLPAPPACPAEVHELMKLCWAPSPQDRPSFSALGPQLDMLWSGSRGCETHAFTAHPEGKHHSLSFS
- assay.explanation: JAK3 enzymatic activity assay (Z'-LYTE Biochemical Kinase Assay, 2 hr preincubation at 4° C.)
- experimental.conditions: cell-free
readout.label: Ki (µM)
# number only, unit µM dropped from output

I am curious: what Ki value has been reported for O=C(CN1CCOCC1)Nc1cccc(-c2nc(-c3c[nH]c(C(=O)N4CCCC4)c3)cs2)c1 ? 0.795

----------
- Tested on: RL cells
- assay.explanation: Proliferation of RL cells (Cell Titer-Glo)
- experimental.conditions: Homo sapiens, B cells, outcome-based, read-out: IC50 Proliferation RL cells (Non-Hodjkin lymphoma)
readout.label: IC50

I am curious: what IC50 value has been reported for O=C(CN1CCOCC1)Nc1cccc(-c2nc(-c3c[nH]c(C(=O)N4CCCC4)c3)cs2)c1 [7A] ? 26 µM

----------
- assay.explanation: Aqueous (kinetic) solubility test in 100 mM phosphate buffer pH 7.4
- experimental.conditions: pH 7.4, aqueous buffer, thermodynamic from solid, Solubility in PBS, 100 mM phosphate buffer pH 7.4, test concentration 100 μM
readout.label: solubility at 1 h

I am curious: what solubility at 1 h value has been reported for CC(C)NCC(O)COc1cccc2ccccc12 (stereo not shown) [Propranolol, reference compound] ? ~100 µM

----------
- System: Interleukin 4/STAT6-STAT6-bla RA1
- assay.explanation: Interleukin 4/STAT6-STAT6-bla RA1 inhibition (IL-4-stimulated STAT6 activity in Ramos cells)
- Assay type: cell-based
- experimental.conditions: Homo sapiens; Ramos cells, IL4 stimulated; read-out: IC50 B cells mechanism-based: Ramos cells IL4 stimulated STAT6 activity
readout.label: pIC50
Remember, pIC50 is on a log scale: it is -log10 of the molar concentration.

I am curious: what pIC50 value has been reported for O=C(CN1CCOCC1)Nc1cccc(-c2nc(-c3c[nH]c(C(=O)N4CCCC4)c3)cs2)c1 ? 7.49
